Tested on: MDA-MB-231 cells
run_description: Combination effect of STX-1159 and mTOR inhibitor, WST-8 assay
Assay type: cell-based, Human
test_parameters: in combination with STX-1159, 48 hours
Label N if CI falls below 0.6; label Y in every other case.

{"compound": "COC(=O)Nc1ccc(-c2nc(N3CCOCC3)c3cnn(C4CCN(Cc5cccnc5)CC4)c3n2)cc1", "answer_label": "Y"}
{"compound": "c1cncc(CN2CCC(n3ncc4c(N5CCOCC5)nc(-c5ccc6[nH]ccc6c5)nc43)CC2)c1", "answer_label": "Y"}
{"compound": "Cc1c(CN2CCN(C(=O)[C@H](C)O)CC2)sc2c(N3CCOCC3)nc(-c3cnc(N)nc3)nc12 [GDC-0980(RG7422)]", "answer_label": "Y"}
{"compound": "CC(C)n1nc(-c2ccc3oc(N)nc3c2)c2c(N)ncnc21", "answer_label": "N"}
{"compound": "O=C1NC(=O)/C(=C/c2ccc3nccc(-c4ccncc4)c3c2)S1", "answer_label": "Y"}
